Values compiled from patent US20260226084A1.

Examples of compounds with documented IC50 follow.
- System: HPAF-II cells
- ASSAY SUMMARY: HPAF-II Cell Proliferation Assay
- Assay type: cell-based
- CONDITION: Homo sapiens, HPAF-II, HPAF-II cells; Table 2; read-out: Inhibition of cell proliferation in HPAF-II (IC50 class)

The examples below pair each entry with its known result.
[
  {
    "COMPOUND": "Cc1ccc(NC(=O)c2cc(C(F)(F)F)cnn2)cc1-c1cc(N[C@H](C)CO)nc(-c2cn[nH]c2)c1",
    "IC50": "< 100 nM"
  },
  {
    "COMPOUND": "Cc1cc(-c2cc(NC(=O)c3cc(C(F)(F)F)cnn3)ccc2C)cc(-c2ccnc(NC(=O)C3CC3)c2)n1",
    "IC50": "100 to 500 nM"
  },
  {
    "COMPOUND": "Cc1ccc(NC(=O)c2cc(C(F)(F)F)cnn2)cc1-c1ccnc(-c2ccnc(N)c2)c1",
    "IC50": "< 100 nM"
  }
]

(Q) For the record Cc1ccc(NC(=O)c2cc(C(F)(F)F)cnn2)cc1-c1ccnc(-c2ccnc(NC(=O)C3CCN(C)C3)c2)c1 (centres unmarked) , what value of IC50 is listed for HPAF-II cells?
(A) 100 to 500 nM

(Q) Likewise for `Cc1ccc(NC(=O)c2cc(C(F)(F)F)cnn2)cc1-c1ccnc(-c2ccnc(NC(=O)C3CCC3)c2)c1` ?
(A) < 100 nM

(Q) And the next one, `Cc1ccc(NC(=O)c2cncc(C(F)(F)F)c2)cc1-c1ccnc(-c2ccnc(NC(=O)C3CC3)c2)c1` ?
(A) 100 to 500 nM

(Q) Proceed to `Cc1ccc(NC(=O)c2cc(C(F)(F)F)cnn2)cc1-c1ccnc(-c2ccnc(/N=C/N(C)C)c2)c1`
(A) 1000 to 10000 nM

(Q) Item: `Cc1ccc(NC(=O)c2cc(C(C)(F)F)cnn2)cc1-c1ccnc(-c2cnsc2)c1`
(A) 100 to 500 nM

(Q) For `Cc1ccc(NC(=O)c2cncc(C(C)(C)F)c2)cc1-c1cncc(-c2cc(NC(=O)C3CC3)ncn2)c1` then?
(A) < 100 nM

(Q) Record: `Cc1ccc(NC(=O)c2cc(C(F)(F)F)cnn2)cc1-c1cc(NCCO)nc(-c2ccnc(NC(=O)C3CC3)c2)c1`
(A) < 100 nM

(Q) How about this compound: `Cc1ccc(NC(=O)c2cc(C3CC3)cnn2)cc1-c1cc(N[C@H](C)CO)nc(-c2cn[nH]c2)c1`
(A) < 100 nM
